Reference for the values: PubChem BioAssay (Tox21)

assay: qHTS assay to identify small molecule antagonists of the vitamin D receptor (VDR) signaling pathway - cell viability counter screen (AID 743225); conditions: VDR-bla HEK293T viability, CellTiter-Glo luminescence, 16 h; series mostly up to 61 µM; note: nearly all actives have a fitted effect of over 50% in size
Results filed as inconclusive are left out. Activity calls are given as the source filed them. Calls come from the whole dose curve; as a rule, active = well fitted cell-killing curve with a large enough effect in the repeat runs; inconclusive = weak or mixed curves, or effect the other way; inactive = no such curve, though single readings can be large or run the other way.
Permitted responses: active, inactive

COMPOUND	CLASS_NAME
O=C(O)CC(O)C(=O)O (configuration not stated)	inactive
O=C(O)c1ccccc1	inactive

## Task For this compound, state the assay outcome: CC(=O)C(=O)O
## Result inactive

## Task Okay, and COc1ccc(OC(F)(F)F)cc1CN[C@H]1CCCN[C@H]1c1ccccc1 ?
## Result active

## Task What do you have for CC(C)NCC(O)c1ccc(O)c(O)c1 (configuration not stated) ?
## Result inactive

## Task Same for COc1ccc(CN(CCN(C)C)c2ccccn2)cc1
## Result inactive

## Task Next compound up: C1CCC(C(CC2CCCCN2)C2CCCCC2)CC1 (configuration not stated)
## Result active

## Task Repeat for the following compound: C=CCc1ccc(O)c(OC)c1
## Result inactive

## Task Quick one: Cc1cc(=O)oc2cc(O)ccc12
## Result inactive

## Task Please do the same for COc1ccc2cc(S(=O)(=O)N[C@H](CC(=O)N[C@H](Cc3ccc(CN4[C@H](C)CCC[C@@H]4C)cc3)C(=O)N(C)C(C)C)c3ccc4c(c3)OCO4)ccc2c1 as well.
## Result active

## Task Moving on to the next compound: C/C=C/C=C/C(=O)O
## Result inactive

## Task Continue with C[C@](N)(Cc1ccc(O)c(O)c1)C(=O)O
## Result inactive

## Task Repeat for the following compound: Cc1cccc(C)c1
## Result inactive

## Task # repeat for NS(=O)(=O)c1cc2c(cc1Cl)NCNS2(=O)=O
## Result inactive

## Task Cool, now Oc1ccccc1
## Result inactive

## Task Likewise for O=c1[nH]cc(F)c(=O)[nH]1 ?
## Result inactive

## Task Now this one: Cc1ncc([N+](=O)[O-])n1C
## Result inactive

----------
molecular target: Thyrotropin receptor (Homo sapiens); assay: qHTS assay to identify small molecule antagonists of the thyroid stimulating hormone receptor (TSHR) signaling pathway (AID 1259385); settings: TSHR-HEK293 cAMP HTRF, TSH-stimulated antagonist mode; series mostly up to 92.4 µM; note: % is set by controls: 0 for no effect and ±100 for the full control effect; nearly all actives have a fitted effect of over 20% in size
Results filed as inconclusive are left out. Calls of active or inactive are those of the source. Calls follow the shape of the full dose curve.
Permitted responses: TRUE (active), FALSE (inactive)

Answered cases to consult:
COMPOUND	CLASS_NAME
CN[C@H]1CC[C@@H](c2ccc(Cl)c(Cl)c2)c2ccccc21	FALSE
CC(O)(P(=O)(O)O)P(=O)(O)O	FALSE
Cc1cc(C)nc(NS(=O)(=O)c2ccc(N)cc2)n1	FALSE

## Task Which outcome was entered for the compound Cc1cccc(C)c1 in this test?
## Result FALSE

## Task Same for CS(=O)(=O)OCCCCOS(C)(=O)=O
## Result FALSE

## Task What do we get for C=C1CC[C@H](O)C/C1=C\C=C1/CCC[C@]2(C)[C@@H]([C@H](C)CCCC(C)C)CC[C@@H]12 ?
## Result FALSE

## Task // repeat for O=c1[nH]cnc2c1ncn2[C@H]1CC[C@@H](CO)O1 and report
## Result FALSE

## Task Try this compound next: CC1(C)S[C@@H]2[C@H](NC(=O)[C@H](N)c3ccccc3)C(=O)N2[C@H]1C(=O)O
## Result FALSE

## Task Thanks! And C=CCc1ccc(O)c(OC)c1 ?
## Result FALSE

----------
molecular target: Androgen receptor (Homo sapiens) (UniProt P10275); assay: qHTS assay to identify small molecule agonists of the androgen receptor (AR) signaling pathway in the presence of an antagonist (AID 1259381); details: MDA-kb2 MMTV-luciferase, AR agonist + nilutamide, 16 h; series mostly up to 92.4 µM; note: nearly all actives have a fitted effect of over 15% in size
Sequence (P10275 whole entry, looked up): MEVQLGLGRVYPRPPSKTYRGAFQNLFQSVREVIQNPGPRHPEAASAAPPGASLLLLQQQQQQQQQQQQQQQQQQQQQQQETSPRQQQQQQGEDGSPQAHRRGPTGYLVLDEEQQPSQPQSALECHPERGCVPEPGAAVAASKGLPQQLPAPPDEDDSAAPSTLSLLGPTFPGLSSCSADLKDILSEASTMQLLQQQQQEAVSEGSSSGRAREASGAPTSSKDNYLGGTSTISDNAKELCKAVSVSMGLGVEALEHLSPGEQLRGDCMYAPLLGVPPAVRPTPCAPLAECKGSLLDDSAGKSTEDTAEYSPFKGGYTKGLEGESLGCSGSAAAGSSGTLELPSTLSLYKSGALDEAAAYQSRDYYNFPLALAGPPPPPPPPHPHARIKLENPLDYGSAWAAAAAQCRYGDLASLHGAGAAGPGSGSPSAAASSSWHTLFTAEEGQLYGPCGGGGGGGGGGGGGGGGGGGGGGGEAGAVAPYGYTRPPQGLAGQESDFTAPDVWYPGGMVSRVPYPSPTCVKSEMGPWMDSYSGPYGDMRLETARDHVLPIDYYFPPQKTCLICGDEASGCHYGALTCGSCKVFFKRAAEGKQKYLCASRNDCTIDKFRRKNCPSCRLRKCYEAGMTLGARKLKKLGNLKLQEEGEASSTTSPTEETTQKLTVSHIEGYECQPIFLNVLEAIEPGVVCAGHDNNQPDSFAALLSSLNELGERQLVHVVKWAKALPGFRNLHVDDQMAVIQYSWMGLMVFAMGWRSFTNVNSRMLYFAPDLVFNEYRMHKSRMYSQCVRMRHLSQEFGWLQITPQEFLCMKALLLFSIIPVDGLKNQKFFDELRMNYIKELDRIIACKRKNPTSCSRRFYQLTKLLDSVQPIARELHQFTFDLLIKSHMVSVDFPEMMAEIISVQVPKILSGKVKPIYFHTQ
The source made the active and inactive calls. Calls follow the shape of the full dose curve.
Hello, when you answer, please use one of the following outcomes: Yes for active, No for inactive

// below: answered molecules
MOLECULE	CLASS_NAME
C1CCC(C(CC2CCCCN2)C2CCCCC2)CC1 (stereo unspecified)	No
O=C(Nc1ncc([N+](=O)[O-])s1)c1cccs1	No
CN(C)CCOC(c1ccccc1)c1ccccc1	No

## Task Please indicate how the test categorized Nc1ccc2c(c1)CN1C(=O)c3ccccc3C1=N2 .
## Result Yes

## Task Also need CCOc1ccc(NC(C)=O)cc1 , thanks.
## Result No

## Task Request: COc1ccc2c(c1)c(CC(=O)O)c(C)n2C(=O)c1ccc(Cl)cc1
## Result No

----------
assay: qHTS assay for small molecule disruptors of the mitochondrial membrane potential - cell viability (AID 720634); details: HepG2 viability, ATP luminescence (CellTiter-Glo), 1 h; series mostly up to 83.2 µM; note: nearly all actives have a fitted effect of over 20% in size
Inconclusive results are not listed. Activity calls are given as the source filed them. Calls follow the shape of the full dose curve.
Entry note: the call must match one of active, inactive

// below: answered molecules
ENTRY_SMILES	CLASS_NAME
F[B-](F)(F)F	inactive
Cc1cn([C@H]2C=C[C@@H](CO)O2)c(=O)[nH]c1=O	inactive
CCOc1ccc(NC(C)=O)cc1	inactive
CCc1nc(N)nc(N)c1-c1ccc(Cl)cc1	inactive
O=C1NS(=O)(=O)c2ccccc21	inactive
CCCCCCCCCCCCCCCC[N+](C)(C)Cc1ccccc1	active

## Task Field: outcome | Entry: CN(C)C(=S)SC(=S)N(C)C
## Result inactive

## Task Then this molecule: CC1(C)O[C@@H]2C[C@H]3[C@@H]4CCC5=CC(=O)C=C[C@]5(C)[C@@]4(F)[C@@H](O)C[C@]3(C)[C@]2(C(=O)CO)O1
## Result inactive

## Task Again, but for Nc1ccc(S(N)(=O)=O)cc1
## Result inactive

## Task What would you report for NC(CO)(CO)CO ?
## Result inactive

----------
assay: A CellTox Green Cytotoxicity Assay to monitor cytotoxicity in HepG2 cells - 8 hour (AID 1224890); conditions: CellTox Green fluorescence; series mostly up to 76.8 µM; note: % is set by controls: 0 for no effect and ±100 for the full control effect; nearly all actives have a fitted effect of over 45% in size
Inconclusive results are not listed. Calls of active or inactive are those of the source. Calls come from the whole dose curve; as a rule, active = well fitted activation curve with a large enough effect in the repeat runs; inconclusive = weak or mixed curves; inactive = flat fitted curve, though single readings scatter.
MEASUREMENT_LABEL: outcome

Here's what some known entries look like.
COMPOUND	outcome
CCCCCCCC(=O)OCC(COC(=O)CCCCCCC)OC(=O)CCCCCCC	inactive
CCN(CC)C(=O)c1cccc(C)c1	inactive
COc1ccc(CN(CCN(C)C)c2ccccn2)cc1	inactive
CCN(Cc1c(F)cccc1Cl)c1c([N+](=O)[O-])cc(C(F)(F)F)cc1[N+](=O)[O-]	inactive
Nc1ccc(S(N)(=O)=O)cc1	inactive

## Task Can you share its outcome? I mean this compound: Nc1ccc([N+](=O)[O-])cc1O
## Result inactive

## Task Subsequent entry: CCCC[P+](CCCC)(CCCC)CCCC
## Result inactive

## Task Now give it for Nc1c2c(nc3ccccc13)CCCC2 too.
## Result inactive

----------
assay: qHTS assay to identify small molecule agonists of H2AX - cell viability counter screen (AID 1224847); conditions: CHO-K1 viability, CellTiter-Glo luminescence, 3 h; series mostly up to 154 µM;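 note: wild-type CHO-K1 cells; top concentration of the series differs between compounds; % is set by controls: 0 for no effect and ±100 for the full control effect; nearly all actives have a fitted effect of over 30% in size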
Inconclusive results are not listed. Active and inactive are the calls of the source. Calls follow the shape of the full dose curve.
Bench note: report the call from true (active), false (inactive)

Solved entries:
MOLECULE	CLASS_NAME
NS(=O)(=O)O	false
Cc1ccc(S(=O)(=O)O)cc1	false
O=c1[nH]cc(F)c(=O)[nH]1	false
NC(CO)(CO)CO	false
O=C1c2c(O)cccc2Cc2cccc(O)c21	false

## Task Hi, do you know how O=C(O)CC(O)C(=O)O (stereo not given) came out in this test?
## Result false

## Task Try this molecule too: COc1ccc(C(Cl)=C(c2ccc(OC)cc2)c2ccc(OC)cc2)cc1
## Result false

## Task Moving on to the next molecule: Cc1ncc([N+](=O)[O-])n1C
## Result false

----------
biological target: Nuclear receptor subfamily 1 group I member 2 (Rattus norvegicus); experiment: Rat pregnane X receptor (rPXR) activation by small molecules, qHTS assay (AID 1346983); settings: rPXR luciferase reporter cells, One-Glo luminescence, 24 h; active compounds read high; note: % is set by controls: 0 for no effect and ±100 for the full control effect; nearly all actives have a fitted effect of over 20% in size
Results filed as inconclusive are left out.
Each entry below lists one item and its recorded max activation value.
Numbers only; they are read as %.

COMPOUND	UNIT_DESCRIPTOR	max activation
CC(=O)CC(c1ccccc1)c1c(O)c2ccccc2oc1=O (stereo not given)	%	-3.82
CN(N=O)C(=O)N[C@@H]1[C@@H](O)[C@H](O)[C@@H](CO)O[C@@H]1O	%	-0.687
NC(CO)(CO)CO	%	-3.86
O=C(O)CC(O)C(=O)O (stereo not given)	%	-2.6

Would you kindly look at the next entry?
## Task Data request, read-out max activation, for O=S1(=O)OC(c2ccc(O)cc2)(c2ccc(O)cc2)c2ccccc21
## Result 1.08

----------
experiment: qHTS assay for small molecule disruptors of the mitochondrial membrane potential (AID 720635); conditions: HepG2 mitochondrial membrane potential, Mito-MPS dye ratio; series mostly up to 83.2 µM; note: potency is the fitted concentration of half-maximal effect
Results filed as inconclusive are left out. Active and inactive are the calls of the source. Calls come from the whole dose curve; as a rule, active = well fitted inhibition curve with a large enough effect in the signal ratio in the repeat runs; inconclusive = weak or mixed curves, or effect the other way; inactive = flat fitted curve, though single readings scatter; the % refers to the signal ratio.
MEASUREMENT_LABEL: Potency

ENTRY_SMILES	Potency
Nc1ccc(S(N)(=O)=O)cc1	inactive
NC(=O)n1c(O)c(C(=O)c2cccs2)c2cc(Cl)ccc21	11.9 µM (active)
Nc1ccc(O)c([N+](=O)[O-])c1	3.03 µM (active)
Oc1ccccc1	inactive
CCOC(N)=O	inactive

## Task Look up Potency: O=C(O)c1ccccc1
## Result inactive

## Task Cool, now O=C1NC(=O)C(c2ccccc2)(c2ccccc2)N1
## Result inactive
